Just for reference, PubChem BioAssay AID720717 is where these values come from.

# Test system: LANA (ORF73) N-terminal peptide binding to nucleosomes, Human herpesvirus 8
# test-name: LANA N-terminal peptide–nucleosome interaction blockers – biochemical, fluorescence polarization, FITC-LANA1-23, chicken nucleosomes, primary screen (AID 720717)
# condition-info: FITC-LANA1-23 / chicken nucleosome fluorescence polarization; stronger effect = lower value
Hit rate of the full screen: of about 51,000 compounds, about 150 (0.29%) were called active. Many of the other results were omitted from the sample, so actives are more common in it than they were.
We begin with a simple list: items and their reported z-score.

[
  {
    "compound": "O=C1C2C3C=CC(C3)C2C(=O)N1C1CC2CCC1C2 (stereo unspecified)",
    "assay-system": "LANA (ORF73) N-terminal peptide binding to nucleosomes, Human herpesvirus 8",
    "z-score": -0.407
  },
  {
    "compound": "O=C(Cc1ccccc1)n1nc(-c2ccco2)nc1NCc1ccccc1",
    "assay-system": "LANA (ORF73) N-terminal peptide binding to nucleosomes, Human herpesvirus 8",
    "z-score": 0.165
  },
  {
    "compound": "CC(CC(=O)NN)C1(O)CCCCC1 (stereo unspecified)",
    "assay-system": "LANA (ORF73) N-terminal peptide binding to nucleosomes, Human herpesvirus 8",
    "z-score": 0.05
  },
  {
    "compound": "CC1=CCCC(C)(C)C1/C=C/C(C)=N/O (stereo unspecified)",
    "assay-system": "LANA (ORF73) N-terminal peptide binding to nucleosomes, Human herpesvirus 8",
    "z-score": -1.1
  },
  {
    "compound": "COc1cccc(NS(=O)(=O)c2ccc3[nH]cc(C(=O)N4CCCCC4C)c(=O)c3c2)c1 (stereo unspecified)",
    "assay-system": "LANA (ORF73) N-terminal peptide binding to nucleosomes, Human herpesvirus 8",
    "z-score": 0.613
  },
  {
    "compound": "COc1ccc(Cn2ccc3nc4ccn(Cc5ccc(OC)cc5)c(=O)c4cc3c2=O)cc1",
    "assay-system": "LANA (ORF73) N-terminal peptide binding to nucleosomes, Human herpesvirus 8",
    "z-score": 0.327
  }
]

====

# Test system: LANA (ORF73) N-terminal peptide binding to nucleosomes, Human herpesvirus 8
# test-name: LANA N-terminal peptide–nucleosome interaction blockers – biochemical, fluorescence polarization, FITC-LANA1-23, chicken nucleosomes, primary screen (AID 720717)
# condition-info: FITC-LANA1-23 / chicken nucleosome fluorescence polarization; stronger effect = lower value
Among all 51,000 compounds or so, about 150 (0.29%) were called active. The sample holds actives, similar compounds and a random draw of the others, so the mix is not that of the screen.
Examples of compounds with documented z-score follow.
observable: z-score

[
  {
    "compound": "COc1cccc(NC(=O)c2cc(-c3cccc(OC)c3)n[nH]2)c1",
    "quantitative-readout": -1.44
  },
  {
    "compound": "CCS(=O)(=O)N1CCCC(c2nc3c(nnn3Cc3ccc(C)cc3)c(=O)[nH]2)C1 (centres undefined)",
    "quantitative-readout": -1.1
  },
  {
    "compound": "Cc1ccc(C(CC(=O)O)c2ccccc2)c(O)c1 (centres undefined)",
    "quantitative-readout": 0.53
  },
  {
    "compound": "CCNc1nc(N2CCOCC2)c2ccccc2n1",
    "quantitative-readout": 1.02
  },
  {
    "compound": "COc1cccc(/C=N/NC(=O)c2cccc(C)c2)c1O",
    "quantitative-readout": -0.518
  },
  {
    "compound": "O=C(CC1Nc2ccccc2NC1=O)Nc1ccccc1NC(=O)CC1Nc2ccccc2NC1=O (centres undefined)",
    "quantitative-readout": -0.867
  },
  {
    "compound": "Cc1cccc(-n2nc(C)c3c(C)cc(=O)oc32)c1",
    "quantitative-readout": 0.165
  },
  {
    "compound": "CCCc1cc(=O)[nH]c2c1c(C)nn2-c1cccc(F)c1",
    "quantitative-readout": 1.12
  },
  {
    "compound": "CCc1cccc2c(C=C(C#N)C#N)cn(CC(=O)NC3CCCC3)c12",
    "quantitative-readout": 0.0985
  },
  {
    "compound": "N#Cc1c(F)cccc1NC(=O)CN1CCCCC1",
    "quantitative-readout": -0.136
  },
  {
    "compound": "O=S1(=O)CCC(S(=O)(=O)N2CCCC2)C1 (centres undefined)",
    "quantitative-readout": -0.472
  },
  {
    "compound": "O=C(O)/C=C\\C(=O)NCc1ccc2c(c1)OCO2",
    "quantitative-readout": 0.273
  },
  {
    "compound": "CCN1C(=Nc2ccc(O)cc2)SC/C1=C\\C(=O)OC",
    "quantitative-readout": 2.25
  },
  {
    "compound": "Clc1ccc(C2N=C(c3cnccn3)NN2)cc1 (centres undefined)",
    "quantitative-readout": -2.98
  },
  {
    "compound": "CC(C)(Oc1ccc(Cl)cc1)C(=O)Nc1ccc2oc(-c3cccnc3)nc2c1",
    "quantitative-readout": 0.188
  },
  {
    "compound": "Cc1ccc(C(C(=O)NCc2ccccc2)N(C(=O)C2COc3ccccc3O2)c2cccc(O)c2)o1 (centres undefined)",
    "quantitative-readout": -0.115
  },
  {
    "compound": "CCOC(=O)C1=NNC2C(=O)N(c3cc(Cl)ccc3OC)C(=O)C12 (centres undefined)",
    "quantitative-readout": -0.513
  },
  {
    "compound": "COc1ccc(C(=O)N(C)C2CCCCC2)cc1",
    "quantitative-readout": -0.539
  },
  {
    "compound": "COc1ccc(C(c2nnnn2C(C)(C)C)N2CCN(c3ccccc3)CC2)cc1 (centres undefined)",
    "quantitative-readout": -0.537
  },
  {
    "compound": "Cc1cc(C)c2nc(C(F)(F)F)nc(NCc3ccc4c(c3)OCO4)c2c1",
    "quantitative-readout": 2.86
  },
  {
    "compound": "Cc1cc(OCCN2CCOCC2)nc(N2CCOCC2)n1",
    "quantitative-readout": 0.348
  },
  {
    "compound": "CC(=O)Nc1ccc(NCC(O)Cn2ccc3ccccc32)cc1 (centres undefined)",
    "quantitative-readout": 1.77
  },
  {
    "compound": "CCCCC(C)C(N)=O (centres undefined)",
    "quantitative-readout": -0.323
  },
  {
    "compound": "COC(=O)c1nnn(-c2nonc2N)c1CN1C(=O)c2ccccc2C1=O",
    "quantitative-readout": -0.366
  }
]
